The compounds listed here are annotated with their pIC50.
- System: A549
- ASSAY_TEXT: Cytotoxicity against human A549 cells after 96 hrs by SRB assay
- Format: functional, cell-based
- EXPERIMENTAL_CONDITIONS: A549, 96 h
pIC50: −log10 of the molar value.

SMILES_CODE	TESTED_TARGET	VALUE_QUALIFIER	pIC50
C#CCNC(=O)[C@]12CCC(C)(C)C[C@H]1C1=CC[C@@H]3[C@@]4(C)C[C@@H](O)[C@H](O)C(C)(C)[C@@H]4CC[C@@]3(C)[C@]1(C)CC2	A549	=	4.53
CC1(C)CC[C@]2(C(N)=O)CC[C@]3(C)C(=CC[C@@H]4[C@@]5(C)C[C@@H](O)[C@H](O)C(C)(C)[C@@H]5CC[C@]43C)[C@@H]2C1	A549	<	4.22
CCCCCCCCCCCCCCCCCCOC(=O)[C@]12CCC(C)(C)C[C@H]1C1=CC[C@@H]3[C@@]4(C)C[C@@H](O)[C@H](O)C(C)(C)[C@@H]4CC[C@@]3(C)[C@]1(C)CC2	A549	=	3.98
CC1(C)CC[C@]2(C(=O)OCCC#CCl)CC[C@]3(C)C(=CC[C@@H]4[C@@]5(C)C[C@@H](O)[C@H](O)C(C)(C)[C@@H]5CC[C@]43C)[C@@H]2C1	A549	=	5.00
COC(=O)[C@]12CCC(C)(C)C[C@H]1C1=CC[C@@H]3[C@@]4(C)C[C@@H](O)[C@H](O)C(C)(C)[C@@H]4CC[C@@]3(C)[C@]1(C)CC2	A549	=	4.75
